Cited source: FireProtDB (doi:10.1093/protein/7.9.1089)

B1: Ribonuclease, P00648 (parent)
chain: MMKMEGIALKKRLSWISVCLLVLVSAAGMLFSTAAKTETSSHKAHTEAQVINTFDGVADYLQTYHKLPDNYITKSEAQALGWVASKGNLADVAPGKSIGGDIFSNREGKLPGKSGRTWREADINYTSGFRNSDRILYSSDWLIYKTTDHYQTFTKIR

- Variants of: B1
- run.parameters: Bacillus amyloliquefaciens; pH 4.4; 25 °C; Thermal; DSC; Sodium acetate/Acetic acid 6.08 mM/13.92 mM/; reversible: yes (>95%); structure 1BNI; whole UniProt chain shown
Reported unfolding free energy values follow for various variants
# output: bare number, implied unit kcal/mol

As a guide, the following entries are already answered.
>>> df
    mut     measured_parameter  experimental_result
0  I98V  unfolding free energy                 6.83
1  D55A  unfolding free energy                 7.97

Summary for this variant, T73G : unfolding free energy is 6.58

Just so you know, measured unfolding free energy for S139A came out at 5.83

get_value(item= D59G , readout=unfolding free energy) returns 7.88

Reported unfolding free energy for T63R was 8.86

unfolding free energy in this record for R116M : 5.8
